target: HIV-1 Env of isolate MGRM-C-008 (subtype C) (HIV-1); assay: cell-based or functional assay
Recorded measurements of IC50 (µg/mL), pseudovirus neutralization, one per entry
Only the number, expressed in µg/mL, is required.

PGT-126 (antibody, V domains shown) VH: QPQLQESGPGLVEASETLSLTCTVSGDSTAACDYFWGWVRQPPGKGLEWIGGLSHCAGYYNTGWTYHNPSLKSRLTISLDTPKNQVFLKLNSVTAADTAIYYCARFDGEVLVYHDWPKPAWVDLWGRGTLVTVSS VL: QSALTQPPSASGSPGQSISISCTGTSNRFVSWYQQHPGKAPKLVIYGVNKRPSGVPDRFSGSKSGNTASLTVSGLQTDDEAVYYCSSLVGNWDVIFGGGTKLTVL :: 2.12

Query: What measured IC50 (µg/mL), pseudovirus neutralization goes with PGT-123 (antibody, V domains shown) VH: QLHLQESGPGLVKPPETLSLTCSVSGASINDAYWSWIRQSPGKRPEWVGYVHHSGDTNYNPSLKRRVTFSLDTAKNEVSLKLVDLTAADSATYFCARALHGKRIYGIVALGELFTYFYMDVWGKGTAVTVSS VL: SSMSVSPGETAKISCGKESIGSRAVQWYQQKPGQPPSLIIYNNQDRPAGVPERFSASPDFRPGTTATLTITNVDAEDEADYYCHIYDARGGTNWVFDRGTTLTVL ?
Reply: 0.011

Hello, the source for this data is patent US20240132578A1, in case you need it.
